Examples of molecules with documented IC50 follow.
- Study system: recombinant human serotonin receptor 5-HT2A (Homo sapiens)
- Construct: expressed in transfected cells; method B: loaded with Ca2+ dye
- Experimental protocol: 5-HT2A antagonist Ca2+ assay in CHO-K1 cells (method A aequorin luminescence / method B FLIPR fluorescence)
- Format: cell-based
- Condition notes: antagonist mode vs EC80 of reference agonist, method A or B, read-out: 5HT2A IC50

| Molecule | IC50 (nM) |
| --- | --- |
| COc1ccc(O[C@@H]2CCN(CCN3CCc4ccccc4C3=O)C2)cc1 | 2800 |
| COC(CCN1CCC(Oc2ccccc2)CC1)c1ccccc1 (centres unmarked) | 20 |
| O[C@@H](COC1CCCCC1)CN1CC2(CC(Oc3ccccc3)CO2)C1 (some centres unmarked) | 90 |
| Cc1cccc(N2CCN(CC(O)COC3(C)COc4ccccc43)CC2)c1C (centres unmarked) | 30 |
| CN1CCN(CC2CCc3ccccc32)CC1COc1ccc(F)cc1 (centres unmarked) | 110 |

----------
- Study system: human sodium channel NaV1.2 (Homo sapiens)
- Sequence (Q99250 whole entry): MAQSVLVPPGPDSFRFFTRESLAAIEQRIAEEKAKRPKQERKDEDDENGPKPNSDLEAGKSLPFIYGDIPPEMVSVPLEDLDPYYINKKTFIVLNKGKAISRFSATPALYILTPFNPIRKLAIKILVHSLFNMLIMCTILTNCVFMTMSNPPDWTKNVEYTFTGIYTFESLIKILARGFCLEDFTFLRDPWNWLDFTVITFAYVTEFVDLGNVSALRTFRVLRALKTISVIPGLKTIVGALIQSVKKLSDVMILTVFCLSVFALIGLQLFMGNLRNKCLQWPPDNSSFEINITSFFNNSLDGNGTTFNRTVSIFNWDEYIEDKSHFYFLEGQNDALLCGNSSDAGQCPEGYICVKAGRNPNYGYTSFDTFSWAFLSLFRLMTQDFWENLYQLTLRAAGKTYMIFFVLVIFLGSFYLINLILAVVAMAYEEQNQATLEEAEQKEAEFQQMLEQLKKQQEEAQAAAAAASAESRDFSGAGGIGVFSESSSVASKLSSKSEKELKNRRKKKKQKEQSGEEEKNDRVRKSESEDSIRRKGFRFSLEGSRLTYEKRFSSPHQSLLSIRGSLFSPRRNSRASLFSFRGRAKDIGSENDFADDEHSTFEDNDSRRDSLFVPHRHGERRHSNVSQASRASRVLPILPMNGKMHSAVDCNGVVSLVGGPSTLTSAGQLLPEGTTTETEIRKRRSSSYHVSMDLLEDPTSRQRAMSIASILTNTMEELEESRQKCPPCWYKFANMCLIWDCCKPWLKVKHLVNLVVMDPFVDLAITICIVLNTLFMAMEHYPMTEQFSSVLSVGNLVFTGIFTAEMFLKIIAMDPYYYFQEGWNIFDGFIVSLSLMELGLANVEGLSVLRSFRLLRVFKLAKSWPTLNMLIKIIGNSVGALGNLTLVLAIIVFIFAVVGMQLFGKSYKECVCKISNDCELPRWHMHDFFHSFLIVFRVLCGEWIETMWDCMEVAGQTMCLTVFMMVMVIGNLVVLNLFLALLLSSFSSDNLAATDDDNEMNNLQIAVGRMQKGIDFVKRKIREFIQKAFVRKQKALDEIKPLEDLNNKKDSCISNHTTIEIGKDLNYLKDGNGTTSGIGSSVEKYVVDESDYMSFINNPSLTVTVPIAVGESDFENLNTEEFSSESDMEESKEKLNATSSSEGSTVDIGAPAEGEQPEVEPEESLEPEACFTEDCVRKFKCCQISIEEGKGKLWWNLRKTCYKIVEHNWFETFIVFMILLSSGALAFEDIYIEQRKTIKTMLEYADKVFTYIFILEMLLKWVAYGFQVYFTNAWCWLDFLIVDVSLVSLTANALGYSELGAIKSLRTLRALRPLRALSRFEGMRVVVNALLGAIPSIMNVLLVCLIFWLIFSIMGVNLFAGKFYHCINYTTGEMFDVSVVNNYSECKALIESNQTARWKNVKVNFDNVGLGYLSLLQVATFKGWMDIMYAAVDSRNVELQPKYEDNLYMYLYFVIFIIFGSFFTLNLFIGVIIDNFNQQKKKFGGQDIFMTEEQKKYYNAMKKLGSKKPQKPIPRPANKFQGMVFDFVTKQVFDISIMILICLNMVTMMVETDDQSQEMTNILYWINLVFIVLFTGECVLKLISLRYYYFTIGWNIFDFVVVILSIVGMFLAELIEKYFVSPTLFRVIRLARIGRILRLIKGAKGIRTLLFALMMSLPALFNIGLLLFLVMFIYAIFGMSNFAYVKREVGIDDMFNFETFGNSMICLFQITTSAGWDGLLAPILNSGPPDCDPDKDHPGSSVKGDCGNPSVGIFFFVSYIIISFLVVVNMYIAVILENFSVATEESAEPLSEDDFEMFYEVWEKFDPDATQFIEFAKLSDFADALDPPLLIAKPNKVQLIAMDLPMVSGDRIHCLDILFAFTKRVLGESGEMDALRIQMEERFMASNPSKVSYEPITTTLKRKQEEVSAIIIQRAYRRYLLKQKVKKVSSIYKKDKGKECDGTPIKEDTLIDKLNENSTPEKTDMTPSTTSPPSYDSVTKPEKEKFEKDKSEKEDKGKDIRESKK
- Experimental protocol: NaV1.2 inhibition, automated patch-clamp (Q-Patch HTX), slow inactivated state (state C)
- Assay type: cell-based
- Condition notes: 1 μM compound; hNaV1.2 CHO cells, slow inactivated state; read-out: NaV1.2 (% inh), 1 μM
Property measured: inhibition at 1 µM (%)

| Molecule | Measurement |
| --- | --- |
| CN1CCN(CC2CCc3ccccc32)CC(Oc2ccc(F)cc2)C1 (stereo not drawn) | 31 |
| COc1ccc2c(c1)C(CN1CCC(Oc3ccccn3)CC1)CC2 (stereo not drawn) | 9 |
| c1ccc2c(c1)CCC1(CCN(CCC3Cc4ccncc4C3)CC1)O2 (stereo not drawn) | 0 |
| c1ccc(CC2CN(CC3CCc4ccccc43)CCO2)cc1 (stereo not drawn) | 23 |
| O=C1c2ccccc2CCN1CCN1CCN(c2ccccc2)CC1 | 16 |
| c1ccc2c(c1)CCC1(CCN(CC3COCc4ccccc43)CC1)O2 (stereo not drawn) | 29 |
| c1ccc(C2COC3(C2)CN(CC2CCc4ccccc42)C3)cc1 (stereo not drawn) | 16 |
| COc1ccc2c(c1)C(CN1CCC(Oc3ccncc3)CC1)CC2 (stereo not drawn) | 1 |
| OC1(CN2CC[C@H](Oc3ccc(F)cc3)C2)COCc2ccccc21 (stereo partly drawn) | 3 |

----------
- Study system: recombinant human serotonin receptor 5-HT2A (Homo sapiens, UniProt P28223)
- Construct: expressed in transfected cells; method B: loaded with Ca2+ dye
- Sequence (P28223 whole entry): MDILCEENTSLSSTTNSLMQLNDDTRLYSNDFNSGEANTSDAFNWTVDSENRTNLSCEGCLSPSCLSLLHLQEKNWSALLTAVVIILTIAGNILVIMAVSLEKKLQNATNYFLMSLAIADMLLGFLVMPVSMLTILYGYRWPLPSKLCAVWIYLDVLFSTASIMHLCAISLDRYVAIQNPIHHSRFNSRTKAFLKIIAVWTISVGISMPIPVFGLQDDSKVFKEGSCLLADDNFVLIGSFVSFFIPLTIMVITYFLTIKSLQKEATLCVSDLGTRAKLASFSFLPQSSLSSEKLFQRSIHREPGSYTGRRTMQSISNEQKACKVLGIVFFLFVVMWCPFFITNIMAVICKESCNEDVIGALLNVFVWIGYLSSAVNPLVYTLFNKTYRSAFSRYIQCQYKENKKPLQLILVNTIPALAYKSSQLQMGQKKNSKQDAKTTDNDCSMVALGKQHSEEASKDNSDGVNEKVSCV
- Experimental protocol: 5-HT2A antagonist Ca2+ assay in CHO-K1 cells (method A aequorin luminescence / method B FLIPR fluorescence)
- Type: cell-based
- Condition notes: antagonist mode vs EC80 of reference agonist, method A or B, read-out: 5HT2A IC50
- From the text: The methods utilized to assess the inhibitory activity of compounds on recombinant human serotonin receptor 5-HT2A was based upon previously published approaches [Jerman J C, Brough S J, Gager T, Wood M, Coldwell M C, Smart D, Middlemiss D N. Pharmacological characterisation of human 5-HT2 receptor subtypes. European Journal of Pharmacology 2001 Feb. […]
Where a name gives a salt, the structure may show the parent alone.
log10 of IC50: recorded values
Property measured: log10 of IC50 (log10 of the value in nM)

| Compound | Property measured | Measurement |
| --- | --- | --- |
| Fc1ccc(OC2CCN(CCC3Cc4ccccc4C3)CC2)cc1 | log10 of IC50 | 1.48 |
| O=C1c2ccccc2CCN1CCN1CCC(Oc2ccccc2)CC1 | log10 of IC50 | 1.70 |
| O=C(CN1CCN(c2cccc(Cl)c2)CC1)c1ccccc1 | log10 of IC50 | 2.95 |
| c1ccc2c(c1)COC1(CCN(CC3CCc4ccccc43)CC1)C2 (stereo not shown) | log10 of IC50 | 2.34 |
| Clc1cccc(N2CCN(CCc3ccccc3)CC2)c1 | log10 of IC50 | 1.60 |
| c1ccc(OC2COC3(CCN(CC4CCc5ccccc54)CC3)C2)cc1 (single isomer, unassigned) | log10 of IC50 | 2.18 |
| c1ccc2c(c1)CCC2CN1CCC2(CCc3cnccc3O2)CC1 (stereo not shown) | log10 of IC50 | 2.04 |
| c1ccc(OC2CCN(CCC3COCc4ccccc43)CC2)cc1 (stereo not shown) | log10 of IC50 | 1.78 |
| Fc1ccc(OC2CCN(CC3Cc4cccnc4C3)CC2)cc1 (stereo not shown) [Example 155, dihydrochloride] | log10 of IC50 | 1.60 |
| c1ccc2c(c1)CCC2CN1CCC2(CCc3ccncc3O2)CC1 (stereo not shown) | log10 of IC50 | 2.26 |
| Fc1ccc(OC2CCN(CC3COc4ccccc43)CC2)cc1 (stereo not shown) | log10 of IC50 | 1.30 |
| c1ccc(OCCN2CCC(Oc3ccc4cccnc4c3)CC2)cc1 | log10 of IC50 | 2.90 |
| c1ccc(OCCN2CCN(c3nsc4ccccc34)CC2)cc1 | log10 of IC50 | 0.60 |
| O[C@@H](COC1CCCCC1)CN1CCC[C@@H](Oc2ccc(F)cc2)C1 | log10 of IC50 | 4.02 |
| O=C1c2ccccc2CCN1CCN1CC[C@H](Oc2ccc(F)cc2)C1 | log10 of IC50 | 2.23 |
| OC(COc1ccccc1)CN1CCC2(CCc3ccccc3O2)CC1 (stereo not shown) | log10 of IC50 | 1.00 |

----------
- Study system: recombinant human serotonin receptor 5-HT2A (Homo sapiens)
- Construct: expressed in transfected cells; method B: loaded with Ca2+ dye
- Experimental protocol: 5-HT2A antagonist Ca2+ assay in CHO-K1 cells (method A aequorin luminescence / method B FLIPR fluorescence)
- Type: cell-based
- Condition notes: antagonist mode vs EC80 of reference agonist, method A or B, read-out: 5HT2A IC50
pIC50: −log10 of the molar value.
Property measured: pIC50

| Compound | Relational operator | Measurement |
| --- | --- | --- |
| CO[C@H](CCN1CCC(Oc2ccccc2)CC1)c1ccccc1 | = | 7.52 |
| Fc1ccc(N2CCC3(CCN(CC4Cc5ccncc5C4)C3)C2)cc1 (stereo not shown) | = | 5.51 |
| O=C1c2ccccc2CCN1CCN1CC[C@@H](Oc2cccnc2)C1 | < | 4.78 |
| COc1ccccc1CN1CCC2(CCc3ccccc3O2)CC1 | = | 5.98 |
| COCc1cccc(OC2CCN(CCN3CCc4ccccc4C3=O)CC2)c1 | = | 6.44 |
| CC(=O)Nc1ccc(OCC(O)CN2CCN(c3ccc(C)c(Cl)c3)CC2)cc1 (stereo not shown) | = | 8.00 |
| OC(CO[C@H]1CCCc2ccccc21)CN1CC[C@@H](Oc2ccc(F)cc2)C1 (stereo partly shown) | = | 5.65 |
| COc1ccccc1OC1CCN(CC2CCc3ccccc32)CC1(C)C (stereo not shown) | = | 6.66 |
| COc1ccc2c(c1)C(CN1CCC(Oc3ccccc3C#N)CC1)CC2 (stereo not shown) | = | 8.00 |
| CO[C@@H](CCN1CCC(Oc2ccccc2)CC1)c1ccccc1 | = | 6.41 |
| COCc1ccc(OC2CCN(CC3CCc4ncccc43)CC2)cc1 (stereo not shown) | < | 4.92 |
| Fc1ccc(N2CCC3(CCN(CC4Cc5ccccc5C4)C3)C2)cc1 (stereo not shown) | = | 7.00 |
| c1ccc(O[C@@H]2COC3(CCN(C[C@H]4CCc5ccccc54)CC3)C2)cc1 (single isomer, unassigned) | = | 6.52 |
| OC(COC1CCCCC1)CN1C[C@H]2C[C@@H]1CN(Cc1ccccc1)C2 (stereo partly shown) | < | 5.28 |
| O=C1c2ccccc2CCN1CCN1CCC(Oc2ccc(F)cc2)CC1 | = | 8.00 |
| COc1ccc2c(c1)C(CN1CC3CC(C1)N(c1ccccc1)C3)CC2 (stereo not shown) | = | 5.27 |
| O=C1CCC(c2ccc(F)cc2)=NN1CN1CCC(Oc2ccc(F)cc2)CC1 | = | 7.05 |
| OC1(CN2CC[C@H](Oc3ccc(F)cc3)C2)COCc2ccccc21 (stereo partly shown) | = | 6.51 |
| OC(COC1CCCCC1)CN1CCN(c2ccccc2)CC1 (stereo not shown) | = | 7.22 |

----------
- Study system: recombinant human serotonin receptor 5-HT2A (Homo sapiens, UniProt P28223)
- Construct: expressed in transfected cells; method B: loaded with Ca2+ dye
- Experimental protocol: 5-HT2A antagonist Ca2+ assay in CHO-K1 cells (method A aequorin luminescence / method B FLIPR fluorescence)
- Format: cell-based
- Condition notes: antagonist mode vs EC80 of reference agonist, method A or B, read-out: 5HT2A IC50
pIC50: −log10 of the molar value.
Items are presented alongside their recorded pIC50.

| Compound | pIC50 |
| --- | --- |
| Fc1ccc(OC2CCN(CCC3CCCOC3)CC2)cc1 (centres unmarked) [Example 169] | 6.55 |
| Cc1cccc(N2CCN(CC3CCOc4ccccc43)CC2)c1C (centres unmarked) [Example 59] | 6.10 |
| COc1ccccc1OC1COC2(C1)CN(CC1CCc3ccccc31)C2 (centres unmarked) [Example 363] | 6.21 |
| COc1ccccc1O[C@@H]1CCN(CC2Cc3ccccc3C2)[C@H](C)C1 [Example 140] | 6.20 |
| O=C1c2ccccc2CN1CCN1CCC(Oc2ccc(F)cc2)CC1 [Example 187] | 7.15 |
